- System: ICR CD strain male mice
- Test protocol: Gastric emptying enhancing activity (phenol red meal)
- Format: in vivo
- Conditions: Mus musculus, ip, 0.25 h, 3.0 mg/kg i.p., gastric emptying at 15 min after test meal, increase vs vehicle
Structures can show the parent of a compound that is named as a salt.
Measurement name: change in vivo at 3 mg/kg (%)
Quick note: give the figure in %, leave out the unit.

Completed entries (count: 3):
>  <Compound>
COc1cc(N)c(Cl)cc1C(=O)NCC1CCN(CC(O)c2ccc(C)cc2)CC1 (stereo not shown) [Example 3, hydrochloride]

>  <Unit string>
%

>  <change in vivo at 3 mg/kg>
71.1

$$$$
>  <Compound>
COc1cc(N)c(Cl)cc1C(=O)NCC1CCN(CCC(O)c2cccc(Cl)c2)CC1 (stereo not shown) [Example 42, hydrochloride]

>  <Unit string>
%

>  <change in vivo at 3 mg/kg>
42.7

$$$$
>  <Compound>
COc1cc(N)c(Cl)cc1C(=O)NCC1CCN(CC(NC(=O)O)c2ccccc2Cl)CC1 (stereo not shown) [Example 29, hydrochloride]

>  <Unit string>
%

>  <change in vivo at 3 mg/kg>
61.3

$$$$

Please turn your attention to the following entry.
Ask | # get_value(readout= change in vivo at 3 mg/kg, system= ICR CD strain male mice) for COc1cc(N)c(Cl)cc1C(=O)NCC1CCN(CCC(O)c2cccc(Cl)c2Cl)CC1 (stereo not shown) [Example 45, hydrochloride]
Reply | 51.4

* * *

- System: ICR CD strain male mice
- Test protocol: Gastric emptying enhancing activity (phenol red meal)
- Format: in vivo
- Conditions: Mus musculus, ip, 0.25 h, 3.0 mg/kg i.p., gastric emptying at 15 min after test meal, increase vs vehicle
Structures can show the parent of a compound that is named as a salt.
We begin with a simple list: items and their reported change in vivo at 3 mg/kg.
Quick note: give the figure in %, leave out the unit.

>  <Compound>
COc1cc(N)c(Cl)cc1C(=O)NCC1CCN(CCC(O)c2ccccc2)CC1 (centres unmarked) [Example 36, hydrochloride]

>  <Assayed system>
ICR CD strain male mice

>  <Measurement name>
change in vivo at 3 mg/kg

>  <Observed>
55.2

$$$$
>  <Compound>
CC(C)n1c(=O)n(C(=O)NCC2CCN(CC(COc3ccc(F)cc3)NC(=O)O)CC2)c2ccccc21 (centres unmarked) [Example 122, hydrochloride]

>  <Assayed system>
ICR CD strain male mice

>  <Measurement name>
change in vivo at 3 mg/kg

>  <Observed>
6.8

$$$$
>  <Compound>
COc1cc(N)c(Cl)cc1C(=O)NCC1CCN(CCC(O)c2cccs2)CC1 (centres unmarked) [Example 50, hydrochloride]

>  <Assayed system>
ICR CD strain male mice

>  <Measurement name>
change in vivo at 3 mg/kg

>  <Observed>
3.9

$$$$
>  <Compound>
COc1cccc(C(CCN2CCC(CNC(=O)c3cc(Cl)c(N)cc3OC)CC2)NC(=O)O)c1 (centres unmarked) [Example 63, hydrochloride]

>  <Assayed system>
ICR CD strain male mice

>  <Measurement name>
change in vivo at 3 mg/kg

>  <Observed>
24.4

$$$$
>  <Compound>
COc1cc(N)c(Cl)cc1C(=O)NCC1CCN(CC(NC(=O)O)c2ccc(C)cc2)CC1 (centres unmarked) [Example 24, hydrochloride]

>  <Assayed system>
ICR CD strain male mice

>  <Measurement name>
change in vivo at 3 mg/kg

>  <Observed>
71.1

$$$$
>  <Compound>
COc1cccc(C(O)CN2CCC(CNC(=O)c3cc(Cl)c(N)cc3OC)CC2)c1 (centres unmarked) [Example 9, hydrochloride]

>  <Assayed system>
ICR CD strain male mice

>  <Measurement name>
change in vivo at 3 mg/kg

>  <Observed>
55.8

$$$$
>  <Compound>
Cn1c(=O)n(C(=O)NCC2CCN(CC(O)COc3ccccc3)CC2)c2ccccc21 (centres unmarked) [Example 111, hydrochloride]

>  <Assayed system>
ICR CD strain male mice

>  <Measurement name>
change in vivo at 3 mg/kg

>  <Observed>
37.2

$$$$
>  <Compound>
COc1cc(N)c(Cl)cc1C(=O)NCC1CCN(CC(O)COc2ccccc2)CC1 (centres unmarked) [Example 71, hydrochloride]

>  <Assayed system>
ICR CD strain male mice

>  <Measurement name>
change in vivo at 3 mg/kg

>  <Observed>
63.7

$$$$

Ask | So what does the record say about change in vivo at 3 mg/kg for COc1cc(N)c(Cl)cc1C(=O)NCC1CCN(CC(COc2ccc(F)cc2)OC(=O)N2CC(C)CC(C)C2)CC1 (centres unmarked) [Example 89, hydrochloride] ?
Reply | 45.3

Ask | So what does the record say about change in vivo at 3 mg/kg for COc1cc(N)c(Cl)cc1C(=O)NCC1CCN(CC(Cc2ccccc2)NC(=O)O)CC1 (centres unmarked) [Example 103, hydrochloride] ?
Reply | 88.8

Ask | So what does the record say about change in vivo at 3 mg/kg for COc1ccc(OCC(O)CN2CCC(CNC(=O)c3cc(Cl)c(N)cc3OC)CC2)cc1 (centres unmarked) [Example 74, hydrochloride] ?
Reply | 46.7

* * *

We begin with a simple list: items and their reported change in vivo at 3 mg/kg.
- Test system: ICR CD strain male mice
- Test protocol: Gastric emptying enhancing activity (phenol red meal)
- Type: in vivo
- Conditions: Mus musculus, ip, 0.25 h, 3.0 mg/kg i.p., gastric emptying at 15 min after test meal, increase vs vehicle
Where a name gives a salt, the structure may show the parent alone.
Quick note: give the figure in %, leave out the unit.

Completed entries (count: 5):
>  <Compound>
COc1ccc(C(O)CN2CCC(CNC(=O)c3cc(Cl)c(N)cc3OC)CC2)cc1 (stereo not shown) [Example 4, hydrochloride]

>  <change in vivo at 3 mg/kg, %>
74.1

$$$$
>  <Compound>
Cc1ccccc1OCC(CN1CCC(CNC(=O)n2c(=O)n(C(C)C)c3ccccc32)CC1)NC(=O)O (stereo not shown) [Example 123, hydrochloride]

>  <change in vivo at 3 mg/kg, %>
56.8

$$$$
>  <Compound>
COc1cc(N)c(Cl)cc1C(=O)NCC1CCN(CCC(O)c2ccc(C(C)C)cc2)CC1 (stereo not shown) [Example 48, hydrochloride]

>  <change in vivo at 3 mg/kg, %>
3.5

$$$$
>  <Compound>
COc1cc(N)c(Cl)cc1C(=O)NCC1CCN(CC(O)c2ccc(OC(F)F)cc2)CC1 (stereo not shown) [Example 16, hydrochloride]

>  <change in vivo at 3 mg/kg, %>
53.6

$$$$
>  <Compound>
COc1cc(N)c(Cl)cc1C(=O)NCC1CCN(CCC(O)c2ccc(Cl)cc2Cl)CC1 (stereo not shown) [Example 46, hydrochloride]

>  <change in vivo at 3 mg/kg, %>
45.9

$$$$

Ask | So what does the record say about change in vivo at 3 mg/kg for COc1cc(N)c(Cl)cc1C(=O)NCC1CCN(CCC(O)Cc2ccc(F)cc2)CC1 (stereo not shown) [Example 51, hydrochloride] ?
Reply | 122

Ask | So what does the record say about change in vivo at 3 mg/kg for COc1cc(N)c(Cl)cc1C(=O)NCC1CCN(CCC(O)c2ccc(C)cc2)CC1 (stereo not shown) [Example 39, hydrochloride] ?
Reply | 40

Ask | So what does the record say about change in vivo at 3 mg/kg for COc1cc(N)c(Cl)cc1C(=O)NCC1CCN(CC(O)COc2ccc(F)cc2)CC1 (stereo not shown) [Example 72, hydrochloride] ?
Reply | 48.1

Ask | So what does the record say about change in vivo at 3 mg/kg for COc1cc(N)c(Cl)cc1C(=O)NCC1CCN(CCC(O)c2ccc(Cl)cc2)CC1 (stereo not shown) [Example 38, hydrochloride] ?
Reply | 49.1

Ask | So what does the record say about change in vivo at 3 mg/kg for COc1cc(N)c(Cl)cc1C(=O)NCC1CCN(CC(O)c2ccc(F)cc2)CC1 (stereo not shown) [Example 2, hydrochloride] ?
Reply | 42.6

* * *

- System: ICR CD strain male mice
- Test protocol: Gastric emptying enhancing activity (phenol red meal)
- Assay type: in vivo
- Conditions: Mus musculus, ip, 0.25 h, 3.0 mg/kg i.p., gastric emptying at 15 min after test meal, increase vs vehicle
Where a name gives a salt, the structure may show the parent alone.
We begin with a simple list: items and their reported change in vivo at 3 mg/kg.
Quick note: give the figure in %, leave out the unit.

>  <Molecule>
COc1cc(N)c(Cl)cc1C(=O)NCC1CCN(CC(COc2ccc(C(F)(F)F)cc2)NC(=O)O)CC1 (centres unmarked) [Example 100, hydrochloride]

>  <Assayed system>
ICR CD strain male mice

>  <Unit string>
%

>  <change in vivo at 3 mg/kg>
46.1

$$$$

Ask | So what does the record say about change in vivo at 3 mg/kg for COc1cc(N)c(Cl)cc1C(=O)NCC1CCN(CCC(NC(=O)O)c2ccccc2)CC1 (centres unmarked) [Example 53, hydrochloride] ?
Reply | 28.4

Ask | So what does the record say about change in vivo at 3 mg/kg for COc1cc(N)c(Cl)cc1C(=O)NCC1CCN(CC(O)c2ccccc2OC)CC1 (centres unmarked) [Example 8, hydrochloride] ?
Reply | 51.6

Ask | So what does the record say about change in vivo at 3 mg/kg for COc1cc(N)c(Cl)cc1C(=O)NCC1CCN(CCC(NC(=O)O)c2cccc(Cl)c2Cl)CC1 (centres unmarked) [Example 59, hydrochloride] ?
Reply | 48

Ask | So what does the record say about change in vivo at 3 mg/kg for COc1cc(N)c(Cl)cc1C(=O)NCC1CCN(CC(COc2c(Cl)cccc2Cl)NC(=O)O)CC1 (centres unmarked) [Example 98, hydrochloride] ?
Reply | 63.6

Ask | So what does the record say about change in vivo at 3 mg/kg for COc1cc(N)c(Cl)cc1C(=O)NCC1CCN(CCC(O)c2ccccc2F)CC1 (centres unmarked) [Example 43, hydrochloride] ?
Reply | 46.1

Ask | So what does the record say about change in vivo at 3 mg/kg for COc1cccc(C(O)CCN2CCC(CNC(=O)c3cc(Cl)c(N)cc3OC)CC2)c1 (centres unmarked) [Example 49, hydrochloride] ?
Reply | 17.8

Ask | So what does the record say about change in vivo at 3 mg/kg for COc1cc(N)c(Cl)cc1C(=O)NCC1CCN(CCC(NC(=O)O)c2ccc(C(C)C)cc2)CC1 (centres unmarked) [Example 62, hydrochloride] ?
Reply | 17.9

This collection of values is drawn from patent US10144709B2.
